Target: T1, PARD3B_1, Q8TEW8
T1 sequence (Q8TEW8 196-299, limits assumed, looked up): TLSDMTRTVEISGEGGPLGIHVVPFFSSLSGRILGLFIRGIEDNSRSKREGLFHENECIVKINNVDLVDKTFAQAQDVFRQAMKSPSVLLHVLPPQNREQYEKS
Test: holdup assay
Design: key: below the threshold = too weak to quantify, mostly under pKd 3.1 to 4
Settings: plain residues with an end cap or a label only (N-terminal biotin on a linker: ado-ado)
MEASURED ATTRIBUTE: pKd

Known pKd results, listed for orientation:
>  <BINDER>
GEDRSPPTAL [MKNK1, Q9BUB5]

>  <ENDPOINT VALUE>
3.63

$$$$
>  <BINDER>
SRSVVESDEL [MYPN, Q86TC9]

>  <ENDPOINT VALUE>
below the threshold

$$$$
>  <BINDER>
APIAGFSSFV [SDK2, Q58EX2]

>  <ENDPOINT VALUE>
3.75

$$$$
>  <BINDER>
VKRNSKETVV [MARCHF3, Q86UD3]

>  <ENDPOINT VALUE>
below the threshold

$$$$
>  <BINDER>
MQHQRTHTRV [ZSCAN30, Q86W11]

>  <ENDPOINT VALUE>
below the threshold

$$$$

For every listed record, write down its pKd.
1. KPGKGSETVV [FZD4, Q9ULV1]
2. RDPPAEWTRV [PTPN18, Q99952]
3. NIAESLESLV [PTPRZ1, P23471]
4. NISYRRESAI [KCNJ4, P48050]

Result:
1. below the threshold
2. 4.03
3. below the threshold
4. below the threshold

For every listed record, write down its pKd.
1. AQRARSPSDV [GPR12, P47775]
2. DDASLPVSDV [PLEKHA1, Q9HB21]
3. ARESQKVSHV [FAM110B, Q8TC76]
4. NNNVVKVDSV [MTNR1A, P48039]
5. LKDDELKTKL [SLCO1A2, P46721]

Result:
1: below the threshold; 2: below the threshold; 3: below the threshold; 4: below the threshold; 5: 3.84

For every listed record, write down its pKd.
1. PSVGSKKTVL [REELD1, A0A1B0GV85]
2. SFISKKEWYV [NECTIN1, Q15223]

Result:
1. 4.62
2. 4.73
